All figures here come from patent US20240041042A1.

# Test system: Zea mays (ZEAMX)
# Type: in vivo
# Experimental parameters: 20 g/ha, ZEAMX, effect in comparison to untreated controls
# Procedure: Seeds of monocotyledonous and dicotyledonous weeds and crop plants are placed in sandy loam in plastic or organic planting pots, covered with soil and cultivated in a greenhouse under controlled growth conditions. 2 to 3 weeks after sowing, the test plants are treated at the one-leaf stage. […]
Assignment: determine reported Post-emergence action against ZEAMX in % (crop plant compatibility) for the given compounds.
Number in %, nothing else.

Problem: Identify measured Post-emergence action against ZEAMX in % (crop plant compatibility) associated with Cc1ncccc1-n1nc(OCC(=O)OCc2ccccn2)c(Br)c1-c1cncc(F)c1
Solution: 0

Problem: Please list Post-emergence action against ZEAMX in % (crop plant compatibility) recorded for the compound COC(=O)CCOC(=O)COc1nn(-c2ccccn2)c(-c2ccc(F)nc2)c1C1CC1(F)F (stereo not drawn) [Example I-248]
Solution: 0

Problem: Please look at this compound and report its Post-emergence action against ZEAMX in % (crop plant compatibility): COC(=O)CN(C)C(=O)COc1nn(-c2ccccn2)c(-c2ccc(F)nc2)c1Br
Solution: 0

Problem: Please report the measured Post-emergence action against ZEAMX in % (crop plant compatibility) for O=C(COc1nn(-c2ncccc2F)c(-c2ccc(F)nc2)c1Br)OCc1ccccn1
Solution: 0

Problem: Name the recorded Post-emergence action against ZEAMX in % (crop plant compatibility) of the compound listed here: COC(=O)CCOC(=O)COc1nn(-c2ccccn2)c(-c2ccc(F)nc2)c1Br
Solution: 20

Problem: Provide only the value of recorded Post-emergence action against ZEAMX in % (crop plant compatibility) for C[C@@H](Oc1nn(-c2ncccc2F)c(-c2cncc(F)c2)c1C1CC1)C(=O)O
Solution: 10

Problem: Report measured Post-emergence action against ZEAMX in % (crop plant compatibility); entry is COC(=O)CN(C)C(=O)COc1nn(-c2ccnc(Cl)c2)c(-c2ccc(F)nc2)c1Br
Solution: 0

Problem: Give Post-emergence action against ZEAMX in % (crop plant compatibility) for the following compound: COC(=O)CCOC(=O)COc1nn(-c2ccccn2)c(-c2cncc(F)c2)c1C1CC1
Solution: 0

Problem: Return Post-emergence action against ZEAMX in % (crop plant compatibility) (reported value) for this compound: CCOC(=O)C(C)Oc1nn(-c2ccccn2)c(-c2ccc(F)nc2)c1I (stereo not drawn)
Solution: 10

Problem: Given COC(=O)C1CCN(C(=O)COc2nn(-c3ccccn3)c(-c3ccc(F)nc3)c2Br)C1 (stereo not drawn) , respond with its Post-emergence action against ZEAMX in % (crop plant compatibility).
Solution: 10

Problem: Item COC(=O)CCOC(=O)COc1nn(-c2ccccn2)c(-c2cncc(F)c2)c1Br : provide Post-emergence action against ZEAMX in % (crop plant compatibility)
Solution: 0

Problem: Give recorded Post-emergence action against ZEAMX in % (crop plant compatibility). COC(=O)CCOC(=O)COc1nn(-c2ccccn2)c(-c2ccc(F)nc2)c1C1CC1(F)F (stereo not drawn) [Example I-261]
Solution: 0

Problem: Given the compound COC(=O)CNC(=O)COc1nn(-c2ccccn2)c(-c2ccc(F)nc2)c1C1CC1 , write its reported Post-emergence action against ZEAMX in % (crop plant compatibility).
Solution: 0

Problem: For the compound COC(=O)CCOC(=O)COc1nn(-c2ccccn2)c(-c2cncc(F)c2)c1Cl , give its reported Post-emergence action against ZEAMX in % (crop plant compatibility).
Solution: 10

Problem: Supply recorded Post-emergence action against ZEAMX in % (crop plant compatibility) for O=C(COc1nn(-c2ncccc2F)c(-c2ccc(F)nc2)c1C1CC1)OCC1CCOC1 (stereo not drawn) here.
Solution: 0

Problem: Identify Post-emergence action against ZEAMX in % (crop plant compatibility) associated with the compound COC(=O)C(C)NC(=O)C(C)Oc1nn(-c2ccccn2)c(-c2ccc(F)nc2)c1Br (stereo not drawn)
Solution: 10

Problem: Name the recorded Post-emergence action against ZEAMX in % (crop plant compatibility) of the item C[C@@H](Oc1nn(-c2ccc(F)cn2)c(-c2cncc(F)c2)c1Br)C(=O)O in your answer.
Solution: 0

Problem: Give the value of Post-emergence action against ZEAMX in % (crop plant compatibility) reported for the following: CCOC(=O)CN(C)S(=O)(=O)NC(=O)COc1nn(-c2ncccc2F)c(-c2ccc(F)nc2)c1Br
Solution: 0

Problem: Complete the entry with Post-emergence action against ZEAMX in % (crop plant compatibility) for O=C(COc1nn(-c2ncccc2F)c(-c2ccc(F)nc2)c1C1CC1)ON=C1CCCC1
Solution: 0

Problem: Provide measured Post-emergence action against ZEAMX in % (crop plant compatibility) value, entry: CCOC(=O)COc1nn(-c2ncccc2F)c(-c2ccc(F)nc2)c1C(F)(F)F
Solution: 0

Problem: Please give the documented Post-emergence action against ZEAMX in % (crop plant compatibility) of CCOC(=O)COc1nn(-c2ncccc2F)c(-c2ccc(F)nc2)c1C1CC1
Solution: 0

Problem: Fill in Post-emergence action against ZEAMX in % (crop plant compatibility) for record C[C@@H](Oc1nn(-c2ncccc2Cl)c(-c2ccc(F)nc2)c1Br)C(=O)O
Solution: 10

Problem: Output measured Post-emergence action against ZEAMX in % (crop plant compatibility) for this item: COCCOC(=O)[C@@H](C)Oc1nn(-c2ncccc2F)c(-c2ccc(F)nc2)c1Br
Solution: 10

Problem: Return reported Post-emergence action against ZEAMX in % (crop plant compatibility). Input compound: COC(=O)CCOC(=O)COc1nn(-c2ncccc2F)c(-c2ccc(F)nc2)c1C1CC1
Solution: 10

Problem: Answer with reported Post-emergence action against ZEAMX in % (crop plant compatibility) of O=C(O)COc1nn(-c2ccccn2)c(-c2ccc(F)nc2)c1C1CC1(F)F (stereo not drawn)
Solution: 0

Problem: Determine from records and report Post-emergence action against ZEAMX in % (crop plant compatibility) for COCCOC(=O)COc1nn(-c2ncccc2F)c(-c2ccc(F)nc2)c1Br
Solution: 10

Problem: Please give the documented Post-emergence action against ZEAMX in % (crop plant compatibility) of O=C(O)COc1nn(-c2ccccn2)c(-c2ccc(F)nc2)c1Cl
Solution: 10

Problem: Give the value of Post-emergence action against ZEAMX in % (crop plant compatibility) reported for the following: COC(=O)COc1nn(-c2ncccc2F)c(-c2cncc(F)c2)c1Br [Example I-16]
Solution: 10

Problem: # return recorded Post-emergence action against ZEAMX in % (crop plant compatibility) for entry COC(=O)C1CCCN(C(=O)COc2nn(-c3ccccn3)c(-c3ccc(F)nc3)c2Br)C1 (stereo not drawn)
Solution: 0

Problem: Fill in Post-emergence action against ZEAMX in % (crop plant compatibility) for record CC(C)OC(=O)COc1nn(-c2ncccc2F)c(-c2ccc(F)nc2)c1C1CC1
Solution: 0

Problem: Identify measured Post-emergence action against ZEAMX in % (crop plant compatibility) associated with O=C(O)CSc1nn(-c2ccccn2)c(-c2cncc(Cl)c2)c1Br
Solution: 10

Problem: Return reported Post-emergence action against ZEAMX in % (crop plant compatibility). Input compound: N#CCOC(=O)COc1nn(-c2ncccc2F)c(-c2ccc(F)nc2)c1C1CC1
Solution: 20

Problem: Hello, please tell me recorded Post-emergence action against ZEAMX in % (crop plant compatibility) for this one: COC(=O)CNC(=O)COc1nn(-c2cccnc2C)c(-c2cncc(F)c2)c1Br
Solution: 0
